- system.under.test: EGFR L858R/T790M/C797S (Homo sapiens, UniProt P00533, C797S/L858R/T790M)
- Sequence (P00533 25-1210 T790M/C797S/L858R): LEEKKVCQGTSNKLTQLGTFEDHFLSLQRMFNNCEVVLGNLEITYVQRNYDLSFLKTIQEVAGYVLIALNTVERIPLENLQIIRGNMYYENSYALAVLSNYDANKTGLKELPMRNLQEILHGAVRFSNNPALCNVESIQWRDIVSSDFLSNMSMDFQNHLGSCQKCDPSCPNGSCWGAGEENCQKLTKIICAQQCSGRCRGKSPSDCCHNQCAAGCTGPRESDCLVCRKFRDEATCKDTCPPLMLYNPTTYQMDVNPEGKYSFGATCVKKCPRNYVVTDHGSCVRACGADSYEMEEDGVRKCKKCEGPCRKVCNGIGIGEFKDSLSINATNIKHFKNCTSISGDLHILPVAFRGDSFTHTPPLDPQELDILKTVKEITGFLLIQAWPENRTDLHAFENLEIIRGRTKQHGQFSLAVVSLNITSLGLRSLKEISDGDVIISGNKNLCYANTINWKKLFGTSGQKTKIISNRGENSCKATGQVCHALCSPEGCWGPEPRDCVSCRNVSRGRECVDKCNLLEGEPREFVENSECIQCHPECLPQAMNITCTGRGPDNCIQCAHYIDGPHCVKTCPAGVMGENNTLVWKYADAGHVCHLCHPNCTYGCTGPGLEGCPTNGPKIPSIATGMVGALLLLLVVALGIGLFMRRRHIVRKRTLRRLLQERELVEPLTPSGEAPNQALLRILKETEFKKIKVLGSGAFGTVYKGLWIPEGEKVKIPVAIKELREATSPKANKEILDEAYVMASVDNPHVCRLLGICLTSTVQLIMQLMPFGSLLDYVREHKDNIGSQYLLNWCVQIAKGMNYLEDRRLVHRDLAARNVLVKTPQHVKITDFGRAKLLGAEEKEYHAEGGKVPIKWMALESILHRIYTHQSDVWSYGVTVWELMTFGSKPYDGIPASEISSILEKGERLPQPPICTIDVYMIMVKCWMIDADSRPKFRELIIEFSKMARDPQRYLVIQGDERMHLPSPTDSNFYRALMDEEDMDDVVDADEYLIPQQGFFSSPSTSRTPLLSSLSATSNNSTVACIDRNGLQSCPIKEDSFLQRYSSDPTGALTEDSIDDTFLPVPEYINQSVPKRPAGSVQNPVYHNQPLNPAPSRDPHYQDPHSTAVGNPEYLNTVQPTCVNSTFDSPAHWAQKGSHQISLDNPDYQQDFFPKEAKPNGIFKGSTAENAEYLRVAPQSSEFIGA
- method: Biochemical EGFR kinase inhibition assay (Lance Ultra TR-FRET), triple mutant L858R/T790M/C797S
- setup.conditions: Km ATP; read-out: IC50 L858R/T790M/C797S (nM), Km ATP
observed.property: IC50 (nM)
Numbers only, in nM.

State recorded IC50 for all listed molecules.
1. O=S(=O)(C1CC1)n1cc(-c2nccc(Nc3cc(NC[C@H]4CC[C@H](CO)CC4)c(C#Cc4cnn(CCF)c4)cn3)n2)cn1 [Example 381]
2. CC1OCCC1C#Cc1cnc(Nc2ccnc(-c3cnn(S(=O)(=O)C4CC4)c3)n2)cc1NCC1CCC(O)CC1 (stereo not shown) [Example 431]

3.4
1

State recorded IC50 for all listed molecules.
1. CS(=O)(=O)N1CCC(C#Cc2cnc(Nc3ccnc(-c4cnn(S(=O)(=O)C5CC5)c4)n3)cc2NCC2CCC(CO)CC2)C1 (stereo not shown) [Example 400]
2. C[C@]1(O)CCCN(c2cc(Nc3ccnc(-c4cnn(S(=O)(=O)C5CC5)c4)n3)ncc2C#Cc2cnn(C(F)(F)F)c2)C1 [Example 448]

1: 26.1; 2: 1.2

###

- system.under.test: EGFR Del19/C797S (Homo sapiens, UniProt P00533, C797S/DEL746-750)
- Sequence (P00533 with tags, fused parts or gaps DEL746-750/C797S): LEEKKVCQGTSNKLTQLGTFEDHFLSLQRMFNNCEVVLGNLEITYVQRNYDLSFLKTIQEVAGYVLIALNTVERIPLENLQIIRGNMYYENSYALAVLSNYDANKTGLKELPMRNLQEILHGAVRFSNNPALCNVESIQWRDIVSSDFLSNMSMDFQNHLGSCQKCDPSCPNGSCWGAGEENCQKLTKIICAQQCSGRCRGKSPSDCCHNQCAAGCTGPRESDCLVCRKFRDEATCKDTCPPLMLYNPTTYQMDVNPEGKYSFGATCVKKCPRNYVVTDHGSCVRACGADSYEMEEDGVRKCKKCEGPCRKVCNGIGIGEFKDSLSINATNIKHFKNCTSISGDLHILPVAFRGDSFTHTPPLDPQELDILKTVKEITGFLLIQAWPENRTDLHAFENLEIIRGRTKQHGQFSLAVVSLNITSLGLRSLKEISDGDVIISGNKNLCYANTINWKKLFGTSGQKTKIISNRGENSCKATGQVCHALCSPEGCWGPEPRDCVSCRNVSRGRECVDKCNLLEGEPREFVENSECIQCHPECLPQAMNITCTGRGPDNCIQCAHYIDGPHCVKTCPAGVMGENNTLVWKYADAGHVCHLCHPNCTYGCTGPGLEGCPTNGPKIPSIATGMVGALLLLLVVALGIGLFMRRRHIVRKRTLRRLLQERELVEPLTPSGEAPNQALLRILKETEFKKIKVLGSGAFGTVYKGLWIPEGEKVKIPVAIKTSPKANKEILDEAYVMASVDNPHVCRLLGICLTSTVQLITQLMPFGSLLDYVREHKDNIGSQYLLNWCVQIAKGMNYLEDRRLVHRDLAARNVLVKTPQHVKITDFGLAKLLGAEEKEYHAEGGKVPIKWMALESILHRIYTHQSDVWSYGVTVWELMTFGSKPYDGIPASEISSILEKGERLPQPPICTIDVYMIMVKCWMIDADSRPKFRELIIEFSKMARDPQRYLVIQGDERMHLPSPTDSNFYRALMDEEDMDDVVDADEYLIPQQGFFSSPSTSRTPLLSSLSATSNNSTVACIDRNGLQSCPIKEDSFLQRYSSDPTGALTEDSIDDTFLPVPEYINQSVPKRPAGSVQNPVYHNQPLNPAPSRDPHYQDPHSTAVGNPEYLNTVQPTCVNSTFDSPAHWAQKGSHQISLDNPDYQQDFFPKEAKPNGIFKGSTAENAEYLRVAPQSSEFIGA
- method: Biochemical EGFR kinase inhibition assay (Lance Ultra TR-FRET), double mutant del19/C797S
- setup.conditions: Km ATP; read-out: IC50 Del19/C797S (nM) Km ATP
- Description: Biochemical EGFR kinase assays were conducted using Lance Ultra time-resolved fluorescence resonance energy transfer (TR-FRET) technology from Perkin-Elmer. […] Each kinase reactions were incubated at room temperature for 1 hour and then stopped by the addition of 4 μL of stop solution (10 mM EDTA). […] After 60 minutes incubation at room temperature the LANCE signal was measured on an EnVision Multilabel Reader (Perkin-Elmer). […]
observed.property: IC50 (nM)
Answers are plain numbers, in nM.

Cn1cc(C#Cc2cnc(Nc3ccnc(-c4cnn(S(=O)(=O)C5CC5)c4)n3)cc2N2CCC(C)(CO)CC2)cn1 [Example 12]: 1.1
Cn1cc(C#Cc2cnc(Nc3ccnc(-c4cnn(S(=O)(=O)C5CC5)c4)n3)cc2N2CCCC(O)CC2)cn1 (stereo not drawn) [Example 77]: 5
CC(=O)N1CCC(n2cc(C#Cc3cnc(Nc4ccnc(-c5cnn(S(=O)(=O)C6CC6)c5)n4)cc3N[C@H]3CC[C@@H](O)CC3)cn2)CC1 [Example 109]: 2.3
CC1(CO)CCN(c2cc(Nc3ccnc(-c4cnn(S(=O)(=O)C5CC5)c4)n3)ncc2C#Cc2cnn(CCN3CCOCC3)c2)CC1 [Example 232]: 0.4
CN(C)CCCn1cc(C#Cc2cnc(Nc3ccnc(-c4cnn(S(=O)(=O)C5CC5)c4)n3)cc2N2CCC(F)(CO)CC2)cn1 [Example 121]: 0.3

Now consider a different compound.
Read off the recorded IC50 for CC1(CO)CCN(c2cc(Nc3ccnc(-c4cnn(S(=O)(=O)C5CC5)c4)n3)ncc2C#Cc2cnn(CC(F)F)c2)CC1 [Example 49]
2.1

###

Assignment: determine reported IC50 for the given compounds.
- system.under.test: EGFR L858R/C797S (Homo sapiens, UniProt P00533, C797S/L858R)
- Sequence (P00533 25-1210 C797S/L858R): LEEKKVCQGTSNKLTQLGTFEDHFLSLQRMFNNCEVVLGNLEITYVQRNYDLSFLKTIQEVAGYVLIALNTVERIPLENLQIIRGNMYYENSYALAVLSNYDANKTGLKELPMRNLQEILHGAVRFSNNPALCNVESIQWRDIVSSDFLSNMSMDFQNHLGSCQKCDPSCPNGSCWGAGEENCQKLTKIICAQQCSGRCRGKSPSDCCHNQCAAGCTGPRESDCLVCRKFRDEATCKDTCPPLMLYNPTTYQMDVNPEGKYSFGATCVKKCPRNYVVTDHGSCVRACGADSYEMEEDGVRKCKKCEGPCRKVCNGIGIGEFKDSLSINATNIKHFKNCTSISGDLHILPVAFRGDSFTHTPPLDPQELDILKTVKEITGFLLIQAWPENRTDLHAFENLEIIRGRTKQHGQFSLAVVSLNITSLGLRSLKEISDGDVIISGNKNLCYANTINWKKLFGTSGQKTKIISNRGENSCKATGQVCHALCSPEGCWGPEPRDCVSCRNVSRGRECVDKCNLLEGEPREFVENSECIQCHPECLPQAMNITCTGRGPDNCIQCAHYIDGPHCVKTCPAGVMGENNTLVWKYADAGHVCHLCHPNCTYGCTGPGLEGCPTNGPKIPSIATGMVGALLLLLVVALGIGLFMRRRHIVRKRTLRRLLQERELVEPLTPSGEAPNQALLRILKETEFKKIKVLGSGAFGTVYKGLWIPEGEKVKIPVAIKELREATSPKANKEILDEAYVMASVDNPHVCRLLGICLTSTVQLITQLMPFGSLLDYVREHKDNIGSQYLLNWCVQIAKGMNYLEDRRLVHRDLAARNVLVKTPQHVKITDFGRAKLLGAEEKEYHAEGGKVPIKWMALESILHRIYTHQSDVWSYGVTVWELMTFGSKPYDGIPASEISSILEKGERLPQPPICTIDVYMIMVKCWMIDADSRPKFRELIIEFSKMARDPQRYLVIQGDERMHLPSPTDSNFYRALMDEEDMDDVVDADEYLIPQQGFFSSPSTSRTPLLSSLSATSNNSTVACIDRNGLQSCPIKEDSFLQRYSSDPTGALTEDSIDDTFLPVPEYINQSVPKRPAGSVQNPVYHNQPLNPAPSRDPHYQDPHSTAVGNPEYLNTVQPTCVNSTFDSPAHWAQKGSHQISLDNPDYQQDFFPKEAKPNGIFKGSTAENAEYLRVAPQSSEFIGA
- method: Biochemical EGFR kinase inhibition assay (Lance Ultra TR-FRET), double mutant L858R/C797S
- setup.conditions: IC50 L858R/C797S (nM), 100 μM ATP
Numbers only, in nM.

CN(C)CCC1CCN(c2cc(Nc3ccnc(-c4cnn(S(=O)(=O)C5CC5)c4)n3)ncc2C#CC2(C)CC2)CC1: 13
CN(C)C(C)(C)CNC1CCN(c2cc(Nc3ccnc(-c4cnn(S(=O)(=O)C5CC5)c4)n3)ncc2C#Cc2cnn(C)c2)CC1: 121
Cn1cc(C#Cc2cnc(Nc3ccnc(-c4cnn(S(=O)(=O)C5CC5)c4)n3)cc2N2CCC(F)CC2)cn1: 33.2
CC1(CO)CCN(c2cc(Nc3ccnc(-c4cnn(S(=O)(=O)C5CC5)c4)n3)ncc2C#Cc2ccc(CN3CCOCC3)cn2)CC1: 6.8
COC1CCN(c2cc(Nc3ccnc(-c4cnn(S(=O)(=O)C5CC5)c4)n3)ncc2C#Cc2cnn(C)c2)CC1: 25.5

State recorded IC50 for all listed compounds.
1. CN1CCC(C#Cc2cnc(Nc3ccnc(-c4cnn(S(=O)(=O)C5CC5)c4)n3)cc2N2CCC3(CCCO3)CC2)C1 (centres unmarked)
2. CC1(CO)CCN(c2cc(Nc3ccnc(-c4cnn(S(=O)(=O)C5CC5)c4)n3)ncc2C#Cc2cccc(C(=O)N3CCOCC3)n2)CC1
3. CC1(C#Cc2cnc(Nc3ccnc(-c4cnn(S(=O)(=O)C5CC5)c4)n3)cc2N[C@H]2CC[C@@H](O)CC2)COC1
4. O=S(=O)(C1CC1)N1CCC(C#Cc2cnc(Nc3ccnc(-c4cnn(S(=O)(=O)C5CC5)c4)n3)cc2NC2CCC(CO)CC2)C1 (centres unmarked)
5. CC1(CO)CCN(c2cc(Nc3ccnc(-c4cnn(S(=O)(=O)C5CC5)c4)n3)ncc2C#Cc2ccccc2)CC1
6. CC1(CO)CCN(c2cc(Nc3ccnc(-c4cnn(S(=O)(=O)C5CC5)c4)n3)ncc2C#Cc2cnc(C(F)(F)F)s2)CC1

22.9
9.1
954
50
67.3
146

State recorded IC50 for all listed compounds.
1. CN(C)CCn1cc(C#Cc2cnc(Nc3ccnc(-c4cnn(S(=O)(=O)C5CC5)c4)n3)cc2N2CCC(F)(CO)CC2)cn1
2. O=S(=O)(C1CC1)n1cc(-c2nccc(Nc3cc(N4CCC5(CCO5)CC4)c(C#Cc4cccnc4)cn3)n2)cn1
3. Cn1ncc(C#Cc2cnc(Nc3ccnc(-c4cnn(S(=O)(=O)C5CC5)c4)n3)cc2N2CCC(O)CC2)c1C1CC1

1: 3.4; 2: 11.2; 3: 73.9

###

Assignment: determine reported log10 IC50 for the given molecules.
- system.under.test: EGFR Del19/C797S (Homo sapiens, UniProt P00533, C797S/DEL746-750)
- method: Biochemical EGFR kinase inhibition assay (Lance Ultra TR-FRET), double mutant del19/C797S
- setup.conditions: Km ATP; read-out: IC50 Del19/C797S (nM) Km ATP
- Description: Biochemical EGFR kinase assays were conducted using Lance Ultra time-resolved fluorescence resonance energy transfer (TR-FRET) technology from Perkin-Elmer. […] Each kinase reactions were incubated at room temperature for 1 hour and then stopped by the addition of 4 μL of stop solution (10 mM EDTA). […] After 60 minutes incubation at room temperature the LANCE signal was measured on an EnVision Multilabel Reader (Perkin-Elmer). […]
Use the decimal logarithm of IC50 (nM).

Example entries and their recorded answers appear below.
CC(=O)N1CCC(n2cc(C#Cc3cnc(Nc4ccnc(-c5cnn(S(=O)(=O)C6CC6)c5)n4)cc3N3CCC(F)(CO)CC3)cn2)CC1: 0.30
O=S(=O)(C1CC1)n1cc(-c2nccc(Nc3cc(-c4cnn(C5CC5)c4)c(C#Cc4cnn(CCF)c4)cn3)n2)cn1: 2.37
CNC1CCN(c2cc(Nc3ccnc(-c4cnn(S(=O)(=O)C5CC5)c4)n3)ncc2C#Cc2ccn(C)n2)CC1: 2.06

State recorded log10 IC50 for all listed molecules.
1. O=S(=O)(C1CC1)n1cc(-c2nccc(Nc3cc(N[C@H]4CC[C@@H](O)CC4)c(C#Cc4cnn(C(F)(F)F)c4)cn3)n2)cn1
2. Cn1cc(C#Cc2cnc(Nc3ccnc(-c4cnn(S(=O)(=O)C5CC5)c4)n3)cc2N[C@H]2CC[C@@H](NCCF)CC2)cn1
3. CN(C)C(C)(C)CNC1CCN(c2cc(Nc3ccnc(-c4cnn(S(=O)(=O)C5CC5)c4)n3)ncc2C#Cc2cnn(C)c2)CC1

1.14
1.09
0.18

###

- system.under.test: EGFR Del19/T790M/C797S (Homo sapiens, UniProt P00533, C797S/DEL746-750/T790M)
- Sequence (P00533 with tags, fused parts or gaps DEL746-750/T790M/C797S): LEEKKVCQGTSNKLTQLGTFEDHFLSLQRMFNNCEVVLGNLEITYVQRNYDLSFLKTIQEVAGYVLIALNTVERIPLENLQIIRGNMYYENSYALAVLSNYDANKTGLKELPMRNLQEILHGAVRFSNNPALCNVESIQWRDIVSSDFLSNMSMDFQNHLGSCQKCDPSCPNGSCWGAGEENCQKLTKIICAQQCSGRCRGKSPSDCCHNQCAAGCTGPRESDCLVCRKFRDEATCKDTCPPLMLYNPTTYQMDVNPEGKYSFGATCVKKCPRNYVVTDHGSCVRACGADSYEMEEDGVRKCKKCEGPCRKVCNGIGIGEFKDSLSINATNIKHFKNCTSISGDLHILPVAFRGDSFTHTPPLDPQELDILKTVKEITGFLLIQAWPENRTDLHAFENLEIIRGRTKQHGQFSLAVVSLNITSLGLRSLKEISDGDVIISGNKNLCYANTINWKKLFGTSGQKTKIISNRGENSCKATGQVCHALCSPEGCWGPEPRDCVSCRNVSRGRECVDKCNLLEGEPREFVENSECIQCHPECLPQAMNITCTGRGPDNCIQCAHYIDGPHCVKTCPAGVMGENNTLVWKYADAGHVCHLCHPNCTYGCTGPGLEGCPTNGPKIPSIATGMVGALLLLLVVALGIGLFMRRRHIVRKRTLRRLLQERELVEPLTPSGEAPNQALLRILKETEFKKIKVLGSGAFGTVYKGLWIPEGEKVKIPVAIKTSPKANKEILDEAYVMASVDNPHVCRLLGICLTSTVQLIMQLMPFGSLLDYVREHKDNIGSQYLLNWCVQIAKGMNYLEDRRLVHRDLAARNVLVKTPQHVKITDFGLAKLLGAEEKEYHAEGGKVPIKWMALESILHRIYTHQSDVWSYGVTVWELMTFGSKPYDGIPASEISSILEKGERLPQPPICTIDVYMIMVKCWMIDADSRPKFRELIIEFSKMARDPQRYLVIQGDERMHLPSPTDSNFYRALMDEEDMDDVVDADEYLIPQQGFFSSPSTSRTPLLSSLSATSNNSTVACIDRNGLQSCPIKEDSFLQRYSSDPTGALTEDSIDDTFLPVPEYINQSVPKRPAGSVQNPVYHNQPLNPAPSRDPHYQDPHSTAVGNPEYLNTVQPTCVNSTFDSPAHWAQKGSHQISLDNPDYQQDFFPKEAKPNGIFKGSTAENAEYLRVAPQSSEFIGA
- method: Biochemical EGFR kinase inhibition assay (Lance Ultra TR-FRET), triple mutant del19/T790M/C797S
- setup.conditions: Km ATP; read-out: IC50 Del19/T790M/C797S (nM), Km ATP
Lab note: class by IC50, see group 1 = under 0.3 nM, group 2 = from 0.3 nM up to 1 nM, group 3 = 1 nM and over

Recorded results for 6 molecules are shown here.
CC1(CO)CCN(c2cc(Nc3ccnc(-c4cnn(S(=O)(=O)C5CC5)c4)n3)ncc2C#Cc2cnn(CC(F)(F)F)c2)CC1: group 3
O=S(=O)(C1CC1)n1cc(-c2nccc(Nc3cc(NC4CCC(O)CC4)c(C#CC4(O)CCOC4)cn3)n2)cn1 (stereo not shown): group 1
CC1OCCC1C#Cc1cnc(Nc2ccnc(-c3cnn(S(=O)(=O)C4CC4)c3)n2)cc1NC1CCC(CO)CC1 (stereo not shown): group 2
O=S(=O)(C1CC1)n1cc(-c2nccc(Nc3cc(N[C@H]4CC[C@@H](CO)CC4)c(C#CC4C[C@@H]5CC[C@@H]4O5)cn3)n2)cn1 (stereo partly shown): group 2
O=S(=O)(C1CC1)n1cc(-c2nccc(Nc3cc(N[C@H]4CC[C@@H](CO)CC4)c(C#Cc4cnn(CCF)c4)cn3)n2)cn1: group 2
CC(C)(O)[C@H]1CC[C@@H](Nc2cc(Nc3ccnc(-c4cnn(S(=O)(=O)C5CC5)c4)n3)ncc2C#Cc2cnn(C(F)(F)F)c2)CC1: group 3

Which of the defined bands does the recorded IC50 of O=S(=O)(C1CC1)N1CCC(C#Cc2cnc(Nc3ccnc(-c4cnn(S(=O)(=O)C5CC5)c4)n3)cc2N[C@H]2CC[C@@H](CO)CC2)CC1 sit within?
group 3

Which of the defined bands does the recorded IC50 of O=S(=O)(C1CC1)n1cc(-c2nccc(Nc3cc(N[C@H]4CCC[C@H](O)C4)c(C#Cc4cnn(CC(F)(F)F)c4)cn3)n2)cn1 sit within?
group 3

Which of the defined bands does the recorded IC50 of CC1(CO)CCN(c2cc(Nc3ccnc(-c4cnn(S(=O)(=O)C5CC5)c4)n3)ncc2C#CC2(O)CCCOC2)CC1 (stereo not shown) sit within?
group 1

Which of the defined bands does the recorded IC50 of CC1(CO)CCN(c2cc(Nc3ccnc(-c4cnn(S(=O)(=O)C5CC5)c4)n3)ncc2C#CC2(O)CCC2)CC1 sit within?
group 3

Which of the defined bands does the recorded IC50 of O=S(=O)(C1CC1)n1cc(-c2nccc(Nc3cc(N4CCC(F)(CO)CC4)c(C#Cc4cnn(CC(F)(F)F)c4)cn3)n2)cn1 sit within?
group 2
